The values you see were collected from PubChem BioAssay (Tox21).

Experiment: A CellTox Green Cytotoxicity Assay to monitor cytotoxicity in HepG2 cells - 32 hour (AID 1224883); further: nearly all actives have a fitted effect of over 50% in size
Settings: CellTox Green fluorescence; series mostly up to 76.8 µM
Results filed as inconclusive are left out. Active and inactive are the calls of the source. The call rests on the fitted dose curve; in most records, active means well fitted activation curve with a large enough effect in the repeat runs; inconclusive means weak or mixed curves; inactive means flat fitted curve, though single readings scatter.
Use one of these outcomes when replying: 1 (yes) = active, 0 (no) = inactive

Here's what some known entries look like.
COMPOUND	CATEGORY
CCN(C)N=O	0 (no)
CCC(Br)(CC)C(=O)NC(N)=O	0 (no)
N#C/C(N)=C(/N)C#N	0 (no)
COC(=O)c1cncn1C(C)c1ccccc1 (configuration not stated)	0 (no)
CC1Sc2c(C(=O)O)c(=O)c3cc(F)c(N4CCNCC4)cc3n21 (configuration not stated)	0 (no)
CCOP(=O)(OCC)SCCSCC	0 (no)
IC(I)=C(I)I	1 (yes)
O=Cc1ccc2c(c1)OCO2	0 (no)
COC(=O)C(Br)CBr (configuration not stated)	0 (no)
COC(N)=O	0 (no)

IN: Please share the test call associated with `CC(C)(Cl)[N+](=O)[O-]` .
OUT: 0 (no)

IN: Please share the test call associated with `C[N+](C)(C)CCCl` .
OUT: 0 (no)

IN: Please share the test call associated with `CCCCCCC#N` .
OUT: 0 (no)

IN: Please share the test call associated with `C=C(C#N)CCC#N` .
OUT: 0 (no)

IN: Please share the test call associated with `C=CCOC(C)=O` .
OUT: 0 (no)

IN: Please share the test call associated with CC(=O)c1cc2c(cc1C)C(C)(C)C(C)CC2(C)C (configuration not stated) .
OUT: 1 (yes)

IN: Please share the test call associated with `C=CC(C)=O` .
OUT: 0 (no)

----------
Experiment: qHTS assay to identify small molecule antagonists of the estrogen receptor beta (ER-beta) signaling pathway - cell viability counter screen (AID 1259382); further: nearly all actives have a fitted effect of over 55% in size
Settings: ER-beta-UAS-bla HEK293T viability, CellTiter-Glo luminescence, 16 h; series mostly up to 92.4 µM
Excerpt: U.S. Tox21 Program National Center for Advancing Translational Sciences [NCATS] NIH Chemical Genomics Center [NCGC] U.S. Environmental Protection Agency [EPA] National Institutes of Environmental Health Sciences [NIEHS] National Toxicology Program [NTP] U.S. Food and Drug Administration [FDA] Tox21 Assay Overview: Estrogen receptor (ER), a nuclear hormone receptor, plays an important role in development, metabolic homeostasis and reproduction. […]
Results filed as inconclusive are left out. Active and inactive are the calls of the source. Calls come from the whole dose curve; as a rule, active = well fitted cell-killing curve with a large enough effect in the repeat runs; inconclusive = weak or mixed curves; inactive = flat fitted curve, though single readings scatter.
Use one of these outcomes when replying: active, inactive

Here's what some known entries look like.
COMPOUND	CATEGORY
O=[N+]([O-])c1ccc(F)c([N+](=O)[O-])c1	inactive
CCOP(=S)(Oc1ccc([N+](=O)[O-])cc1)c1ccccc1 (stereo not drawn)	inactive
CNC(C)Cc1ccccc1OC (stereo not drawn)	inactive

IN: Please share the test call associated with CC(O)(CS(=O)(=O)c1ccc(F)cc1)C(=O)Nc1ccc(C#N)c(C(F)(F)F)c1 (stereo not drawn) .
OUT: active

IN: Please share the test call associated with `CCOP(=S)(OCC)SCn1nnc2ccccc2c1=O` .
OUT: inactive

IN: Please share the test call associated with `CCOP(=O)(OCC)SCCSCC` .
OUT: inactive

IN: Please share the test call associated with `ClC=C(Cl)Cl` .
OUT: inactive

IN: Please share the test call associated with `Cc1ccc2ccccc2c1` .
OUT: inactive

----------
Assay: qHTS assay to identify small molecule antagonists of the estrogen receptor alpha (ER-alpha) signaling pathway using the BG1 cell line in the presence of 0.1 nM 17-beta-estradiol - cell viability counter screen (AID 1259241); further: nearly all actives have a fitted effect of over 40% in size
Details: VM7Luc4E2 (BG1) viability, CellTiter-Fluor protease, 22 h, 0.1 nM estradiol agonist added; series mostly up to 92.4 µM
Text: National Center for Advancing Translational Sciences [NCATS] NIH Chemical Genomics Center [NCGC] U.S. Environmental Protection Agency [EPA] National Institutes of Environmental Health Sciences [NIEHS] National Toxicology Program [NTP] U.S. Food and Drug Administration [FDA] Estrogen receptor (ER), a member of the nuclear hormone receptor plays an important role in development, metabolic homeostasis and reproduction. […]
Results filed as inconclusive are left out. Calls of active or inactive are those of the source. Calls follow the shape of the dose curve; as a rule, active = well fitted cell-killing curve with a large enough effect in the repeat runs; inconclusive = weak or mixed curves, or effect the other way; inactive = flat fitted curve, though single readings scatter.
Use one of these outcomes when replying: true (1) (active), false (0) (inactive)

Here's what some known entries look like.
MOLECULE	CATEGORY
CCOc1ccc(C(C)(C)COCc2cccc(Oc3ccccc3)c2)cc1	false (0)
C[C@]12CC[C@H]3[C@@H](CCC4=CC(=O)CC[C@@H]43)[C@@H]1CC[C@@H]2OC(=O)CCC1CCCCC1	false (0)
CCOC(=O)COc1cc(-c2nn(C)c(OC(F)F)c2Cl)c(F)cc1Cl	false (0)
C#CCOC(C(=O)OCCN(C)C)(c1ccccc1)c1ccccc1	false (0)
Nc1nc(N)nc(N)n1	false (0)
ClCc1cccc(Cl)c1	false (0)
CCOP(=S)(OCC)Oc1nc(Cl)c(Cl)cc1Cl	false (0)
CCBr	false (0)

IN: Please share the test call associated with `N#Cc1ccc(Cl)cc1` .
OUT: false (0)

IN: Please share the test call associated with `Cc1cc(=O)[nH]o1` .
OUT: false (0)

IN: Please share the test call associated with `COc1ccc(-c2ccccc2)cc1NNC(=O)OC(C)C` .
OUT: false (0)

IN: Please share the test call associated with `CCOS(C)(=O)=O` .
OUT: false (0)

IN: Please share the test call associated with COCC(C)N(C(=O)CCl)c1c(C)csc1C (stereo unspecified) .
OUT: false (0)

----------
Experiment: qHTS assay to identify small molecule antagonists of the constitutive androstane receptor (CAR) signaling pathway - cell viability counter screen (AID 1224837); further: nearly all actives have a fitted effect of over 45% in size
Details: HepG2-CYP2B6-hCAR viability, CellTiter-Fluor, 23 h, co-treated with 50 nM CITCO; series mostly up to 92.4 µM
Inconclusive results are not listed. Activity calls are given as the source filed them. Calls come from the whole dose curve; as a rule, active = well fitted cell-killing curve with a large enough effect in the repeat runs; inconclusive = weak or mixed curves, or effect the other way; inactive = flat fitted curve, though single readings scatter.
Use one of these outcomes when replying: Yes = active, No = inactive

COMPOUND	CATEGORY
NC(=O)C(Cl)(Cl)Cl	No
CCOP(=O)(OCC)SCCSCC	No
C#CCOC(C(=O)OCCN(C)C)(c1ccccc1)c1ccccc1	No
O=[Se]=O	Yes
c1ccc(CN2CCNCC2)cc1	No

IN: Please share the test call associated with `N#Cc1ccc(Cl)cc1` .
OUT: No

IN: Please share the test call associated with `C=CCN1CC[C@]23c4c5ccc(O)c4O[C@H]2C(=O)CC[C@@]3(O)[C@H]1C5` .
OUT: No

IN: Please share the test call associated with `CCOC(=O)CBr` .
OUT: No

IN: Please share the test call associated with `C[C@]12CC[C@H]3[C@@H](CCC4=CC(=O)CC[C@@H]43)[C@@H]1CC[C@@H]2OC(=O)CCC1CCCCC1` .
OUT: No

IN: Please share the test call associated with CCCCC(CC)COP(=O)(Oc1ccccc1)Oc1ccccc1 (stereo unspecified) .
OUT: No

IN: Please share the test call associated with `O=C(O)C1(c2ccc3c(c2)OC[C@H](Cc2ccc(-c4ccccc4)cc2)[C@H]3O)CCCC1` .
OUT: No

IN: Please share the test call associated with Cn1cc[n+](C)c1 (tested in a mixture with another compound) .
OUT: No

IN: Please share the test call associated with O=C1C(Cl)C(CCl)CN1c1cccc(C(F)(F)F)c1 (stereo unspecified) .
OUT: No

IN: Please share the test call associated with `O=S1(=O)OC(c2cc(Br)c(O)c(Br)c2)(c2cc(Br)c(O)c(Br)c2)c2ccccc21` .
OUT: Yes

IN: Please share the test call associated with `O=C=Nc1ccc(Cl)cc1` .
OUT: No

----------
Test: qHTS assay for small molecule agonists of the antioxidant response element (ARE) signaling pathway - cell viability counter screen (AID 743203); further: nearly all actives have a fitted effect of over 55% in size
Details: ARE-bla HepG2 viability, CellTiter-Glo luminescence, 16 h; series mostly up to 73.3 µM
Inconclusive results are not listed. Activity calls are given as the source filed them. Calls come from the whole dose curve.
MEASURED_QUANTITY: outcome

Use these answered entries as a reference point.
COMPOUND	REPORTED_RESULT
Clc1cccc(SC2CCNCC2)n1	inactive
CCOP(=S)(Oc1ccc([N+](=O)[O-])cc1)c1ccccc1 (configuration not stated)	inactive
C=CCN1CC[C@]23c4c5ccc(O)c4O[C@H]2C(=O)CC[C@@]3(O)[C@H]1C5	inactive
ClCCCCBr	inactive
O=Cc1ccc(Cl)cc1Cl	inactive

IN: What value of measured outcome is listed for `C[N+](C)(C)CCCl` ?
OUT: inactive

IN: What value of measured outcome is listed for `CCCN(CCCl)c1c([N+](=O)[O-])cc(C(F)(F)F)cc1[N+](=O)[O-]` ?
OUT: inactive

----------
Test: qHTS assay to identify small molecule agonists of H2AX - cell viability counter screen (AID 1224847); further: nearly all actives have a fitted effect of over 30% in size; further: potency means the concentration at half of the fitted maximal effect
Settings: CHO-K1 viability, CellTiter-Glo luminescence, 3 h; series mostly up to 154 µM
Inconclusive results are not listed. Activity calls are given as the source filed them. The call rests on the fitted dose curve.
MEASURED_QUANTITY: Potency

Use these answered entries as a reference point.
MOLECULE	Potency
Sc1ccccc1Cl	inactive
O=C(NC(=O)c1c(F)cccc1F)Nc1ccc(OC(F)(F)C(F)OC(F)(F)F)c(Cl)c1 (stereo not drawn)	inactive
Nc1ccc(N=Nc2ccc(-c3ccc(N=Nc4c(S(=O)(=O)O)cc5cc(S(=O)(=O)O)c(N=Nc6ccccc6)c(O)c5c4N)cc3)cc2)c(N)c1	11.5 µM (active)
C=CCN1CC[C@]23c4c5ccc(O)c4O[C@H]2C(=O)CC[C@@]3(O)[C@H]1C5	inactive
CCOC(=O)C(Cl)C(C)=O (stereo not drawn)	inactive
CN1C[C@H](CNC(=O)OCc2ccccc2)C[C@@H]2c3cccc4c3c(cn4C)C[C@H]21	inactive

IN: What value of measured Potency is listed for `Nc1nc(=S)[nH][nH]1` ?
OUT: inactive

IN: What value of measured Potency is listed for `COc1nn(C(=O)NS(=O)(=O)c2ccccc2OC(F)(F)F)c(=O)n1C` ?
OUT: inactive

IN: What value of measured Potency is listed for `C[N+](C)(C)CCCl` ?
OUT: inactive

IN: What value of measured Potency is listed for `O=C1CN=C(c2ccccc2)c2cc(Cl)ccc2N1CC1CC1` ?
OUT: 94.2 µM (active)

IN: What value of measured Potency is listed for `O=C(N[C@H](c1ccccc1)[C@@H]1CN2CCC1CC2)c1c(Cl)ccc(C(F)(F)F)c1Cl` ?
OUT: 182 µM (active)

IN: What value of measured Potency is listed for `CCCCCCCCOC(=O)c1ccc(C(=O)OCCCCCCCC)c(C(=O)OCCCCCCCC)c1` ?
OUT: inactive

IN: What value of measured Potency is listed for `CCOS(C)(=O)=O` ?
OUT: inactive
